Test system: UACC-257 melanoma
Assay: NCI tumour cell line growth inhibition, 48 h
Values of TGI greater than or equal to 50 µM map to YES; values below map to NO.

Solved cases below.
>  <molecule>
COc1cc(/C=C/C(=O)N[C@@H]2C(=O)N3[C@@H]2SC(C)(C)[C@@H]3C(=O)O)ccc1O

>  <labelClass>
YES

$$$$
>  <molecule>
CS(=O)(=O)Nc1cccc(-c2ccc3ncnc(Nc4cncc(Cl)c4)c3c2)c1

>  <labelClass>
NO

$$$$
>  <molecule>
CCOC(=O)c1nc2ccc(C(F)(F)F)cc2nc1NCc1ccc(F)cc1

>  <labelClass>
YES

$$$$
>  <molecule>
c1ccc(C[N+]23C(CC[C@H]2c2ccccc2)CC[C@H]3c2ccccc2)cc1 (stereo not given in full)

>  <labelClass>
YES

$$$$
>  <molecule>
COc1cc(-c2cn(-c3ccc(F)cc3)c(=O)[nH]2)cc(OC)c1OC

>  <labelClass>
YES

$$$$
>  <molecule>
CN(CCCNC(=O)c1nn(-c2ccccc2)c2c1Cc1ccccc1-2)CCCNC(=O)c1nn(-c2ccccc2)c2c1Cc1ccccc1-2

>  <labelClass>
NO

$$$$

Query string: Threshold query (TGI >= 50 µM) on N#CC1=C(N)Oc2c(ccc3cccnc23)C1c1ccccc1 (stereo not given)
Result string: YES

Query string: Check this molecule for TGI at or above 50 µM: Nc1csc(-c2scc3c2OCCO3)c1N
Result string: YES

Query string: Form field: TGI at least 50 µM? Entry: NCCNc1nc2ccc(F)cc2c2c(=O)c3cc(F)ccc3sc12
Result string: NO

Query string: Decide: is the reported value of TGI for CC(C)(C)c1cc(C#N)c2c(c1)C(=O)OC2(c1ccccc1)c1ccccc1C#N (stereo not given) equal to or greater than 50 µM?
Result string: YES

Values from PubChem BioAssay (NCI)
